testTarget: horseradish peroxidase (HRP) tagged delF508-CFTR (Homo sapiens, UniProt P13569, DEL508-508)
Construct: expressed in transfected cells
assaySummary: Measurement of delF508-CFTR-HRP surface expression in CFBE41o- cells
Assay type: cell-based
conditionsUsed: delF508-CFTR-HRP surface expression, CFBE41o- cells; read-out: DelF508-CFTR-HRP EC50
Structures can show the parent of a compound that is named as a salt.
Reported pEC50 by item:
API: returns pEC50 as number; meaning -log10 of concentration in mol/L.

Take a look at these entries with their results.
>  <molecule>
Cc1ccccc1-c1nc(NS(=O)(=O)c2cccc(N3CCNC[C@H]3C(=O)O)n2)ccc1C(F)(F)F [Example 354]

>  <pEC50>
5.56

$$$$
>  <molecule>
Cc1cccc(F)c1-c1nc(NS(=O)(=O)c2cccc(N)n2)ccc1Cl [Example 31]

>  <pEC50>
5.88

$$$$
>  <molecule>
CCc1ccccc1-c1nc(NS(=O)(=O)c2cccc(N)n2)ccc1Cl [Example 29]

>  <pEC50>
5.97

$$$$
>  <molecule>
Cc1ccccc1-c1nc(NS(=O)(=O)c2cccc(N[C@H]3CCCNC3)n2)ccc1C(F)(F)F [Example 105, Hydrochloride]

>  <pEC50>
5.50

$$$$
>  <molecule>
Cc1cccc(C)c1-c1nc(NS(=O)(=O)c2cccc(N3CCn4cc(C(F)(F)F)nc4C3)n2)ccc1Cl [Example 199]

>  <pEC50>
5.65

$$$$

Output pEC50 of CC1(C(=O)O)CCN(c2cccc(S(=O)(=O)Nc3ccc(Cl)c(-c4cccc(F)c4Cl)n3)n2)CC1 [Example 245]
5.46

Please give measured pEC50 of the following entry: Cc1ccc(C#N)cc1-c1nc(NS(=O)(=O)c2ccnc(N3CC(C)(O)C3)c2)ccc1C(F)(F)F [Example 317]
5.33

Supply reported pEC50 belonging to this molecule: Cc1ccccc1-c1nc(NS(=O)(=O)c2cccc(N3CCN(C(=O)OC(C)(C)C)C[C@H]3C(=O)O)n2)ccc1C(F)(F)F [Example 350]
5.72

Identify pEC50 associated with the molecule Cc1ccc(F)cc1-c1nc(NS(=O)(=O)c2ccnc(N)c2)ccc1C(F)(F)F [Example 42]
5.65

Give reported pEC50 value for O=S(=O)(Nc1ccc(Cl)c(-c2ccccc2Cl)n1)c1cccc(N2CCNCC2)n1 [Example 156]
5.39

Return pEC50 (reported value) for this molecule: Nc1cccc(S(=O)(=O)Nc2ccc(Cl)c(-c3cc(Cl)ccc3C3CC3)n2)n1 [Example 16]
5.99

Report pEC50 for Cc1cccc(C)c1-c1nc(NS(=O)(=O)c2cccc(N3CCC(N)(C(=O)O)CC3)n2)ccc1Cl [Example 269, Hydrochloride]
5.40

Provide pEC50 value for the following molecule: Cc1cc(F)ccc1-c1nc(NS(=O)(=O)c2cccc(N3CC(C)(O)C3)n2)ccc1C(F)(F)F [Example 217]
6.51

State its pEC50: CCc1ccccc1-c1nc(NS(=O)(=O)c2cccc(N3CCC[C@H](C(=O)O)C3)n2)ccc1C(F)(F)F [Example 370]
5.83

Please list pEC50 recorded for the molecule Cc1ccc(F)cc1-c1nc(NS(=O)(=O)c2ccnc(N)c2)ccc1Cl [Example 46]
5.71

----------
testTarget: delF508-CFTR (Homo sapiens, UniProt P13569, DEL508-508)
Construct: functional activity of the CFTR channel (Chloride ion transport) in patient derived primary human bronchial epithelial cells
Sequence (P13569 with tags, fused parts or gaps DEL508-508): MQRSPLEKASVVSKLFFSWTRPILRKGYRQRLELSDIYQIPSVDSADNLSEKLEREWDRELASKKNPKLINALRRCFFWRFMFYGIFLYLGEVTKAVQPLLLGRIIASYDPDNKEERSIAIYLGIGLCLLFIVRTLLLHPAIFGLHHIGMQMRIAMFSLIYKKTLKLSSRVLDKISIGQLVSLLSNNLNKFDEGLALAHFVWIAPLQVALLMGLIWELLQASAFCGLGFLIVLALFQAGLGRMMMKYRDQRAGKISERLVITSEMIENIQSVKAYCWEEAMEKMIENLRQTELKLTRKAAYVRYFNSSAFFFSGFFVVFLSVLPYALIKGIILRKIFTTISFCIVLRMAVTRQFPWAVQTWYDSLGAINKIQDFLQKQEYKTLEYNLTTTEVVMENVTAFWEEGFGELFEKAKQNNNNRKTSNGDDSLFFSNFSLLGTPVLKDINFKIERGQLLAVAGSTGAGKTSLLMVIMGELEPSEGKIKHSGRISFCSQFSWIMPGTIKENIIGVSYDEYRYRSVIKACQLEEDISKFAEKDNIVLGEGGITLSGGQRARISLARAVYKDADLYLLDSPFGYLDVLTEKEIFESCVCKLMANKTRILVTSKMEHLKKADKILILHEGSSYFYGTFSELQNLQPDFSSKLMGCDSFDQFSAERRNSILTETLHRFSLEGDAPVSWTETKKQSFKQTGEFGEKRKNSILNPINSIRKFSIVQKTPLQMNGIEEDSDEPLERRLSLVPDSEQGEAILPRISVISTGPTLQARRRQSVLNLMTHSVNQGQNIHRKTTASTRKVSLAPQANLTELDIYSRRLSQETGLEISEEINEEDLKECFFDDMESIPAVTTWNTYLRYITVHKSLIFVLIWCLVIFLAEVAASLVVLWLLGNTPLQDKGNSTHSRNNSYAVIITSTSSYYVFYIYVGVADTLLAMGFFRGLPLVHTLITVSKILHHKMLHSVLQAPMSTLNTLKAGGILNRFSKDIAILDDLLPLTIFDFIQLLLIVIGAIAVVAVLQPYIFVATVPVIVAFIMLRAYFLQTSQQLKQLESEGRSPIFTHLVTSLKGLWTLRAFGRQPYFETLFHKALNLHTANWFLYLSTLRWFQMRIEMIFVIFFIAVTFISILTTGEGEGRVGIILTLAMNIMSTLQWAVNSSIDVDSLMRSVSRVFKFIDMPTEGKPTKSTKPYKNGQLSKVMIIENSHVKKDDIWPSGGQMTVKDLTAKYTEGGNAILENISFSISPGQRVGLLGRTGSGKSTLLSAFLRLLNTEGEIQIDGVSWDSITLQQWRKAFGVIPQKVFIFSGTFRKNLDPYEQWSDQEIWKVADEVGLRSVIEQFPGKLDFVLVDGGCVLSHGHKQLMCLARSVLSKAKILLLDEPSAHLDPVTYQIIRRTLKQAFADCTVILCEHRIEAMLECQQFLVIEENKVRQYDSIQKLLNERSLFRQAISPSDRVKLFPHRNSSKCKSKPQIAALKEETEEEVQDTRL
assaySummary: Measurement of delF508-CFTR functional activity in primary human bronchial epithelial cells (HBECs) using Multi-Transepithelial Clamp Circuit (MTECC-24) assay
conditionsUsed: primary CF HBECs; test compound added 24h before assay, in the presence of potentiator; mean of at least two replicates; read-out: MTECC24 CFHBEC- EC50
pEC50: −log10 of the molar value. Where a name gives a salt, the structure may show the parent alone.
pEC50 vs 7: at or above is Criterion met, below is Criterion not met.

>  <compound>
Cc1ccc(F)cc1-c1nc(NS(=O)(=O)c2cccc(N3CCC[C@@H](C(=O)O)C3)n2)ccc1C(F)(F)F

>  <assignedClass>
Criterion met

$$$$
>  <compound>
Cc1cccc(C)c1-c1nc(NS(=O)(=O)c2cccc(N3CCC(C(=O)O)CC3)n2)ccc1Cl

>  <assignedClass>
Criterion not met

$$$$
>  <compound>
Cc1ccccc1-c1nc(NS(=O)(=O)c2cccc(N3CCC(C)(N)CC3)n2)ccc1C(F)(F)F [Example 110, Hydrochloride]

>  <assignedClass>
Criterion met

$$$$
>  <compound>
Cc1cccc(C)c1-c1cc(C(F)(F)F)cc(NS(=O)(=O)c2cccc(N3CC(O)C3)n2)n1

>  <assignedClass>
Criterion met

$$$$
>  <compound>
O=S(=O)(Nc1ccc(C(F)(F)F)c(-c2ccc(F)cc2Cl)n1)c1cccc(N2CC(O)C2)n1

>  <assignedClass>
Criterion met

$$$$
>  <compound>
Cc1ccccc1-c1nc(NS(=O)(=O)c2cccc(O[C@@H]3COC[C@]3(C)O)n2)ccc1C(F)(F)F (single isomer, unassigned)

>  <assignedClass>
Criterion met

$$$$
>  <compound>
Cc1ccccc1-c1nc(NS(=O)(=O)c2cccc(N[C@@H]3CCOC[C@@H]3O)n2)ccc1C(F)(F)F (racemic) [Example 275]

>  <assignedClass>
Criterion met

$$$$
>  <compound>
CCc1ccccc1-c1nc(NS(=O)(=O)c2cccc(N3CCC[C@H](C(=O)O)C3)n2)ccc1C(F)(F)F

>  <assignedClass>
Criterion met

$$$$
>  <compound>
O=S(=O)(Nc1ccc(C(F)(F)F)c(-c2cccc(F)c2Cl)n1)c1cccc(N2CC(O)C2)n1

>  <assignedClass>
Criterion met

$$$$
>  <compound>
CN[C@@H]1CCN(c2cccc(S(=O)(=O)Nc3ccc(C(F)(F)F)c(-c4ccccc4C)n3)n2)C1 [Example 121, Hydrochloride]

>  <assignedClass>
Criterion not met

$$$$

Could you please find out whether Cc1cccc(C)c1-c1nc(NS(=O)(=O)c2cccc(N)n2)ccc1Br has pEC50 that meets 7 or exceeds it?
Criterion met

Is pEC50 at least 7? Consider Cc1cccc(C)c1-c1nc(NS(=O)(=O)c2cccc(N3CCNC(=O)C3)n2)ccc1Cl
Criterion met
